study-system: Potassium voltage-gated channel subfamily KQT member 1 (Homo sapiens) (UniProt P51787)
Sequence (P51787 whole entry, looked up): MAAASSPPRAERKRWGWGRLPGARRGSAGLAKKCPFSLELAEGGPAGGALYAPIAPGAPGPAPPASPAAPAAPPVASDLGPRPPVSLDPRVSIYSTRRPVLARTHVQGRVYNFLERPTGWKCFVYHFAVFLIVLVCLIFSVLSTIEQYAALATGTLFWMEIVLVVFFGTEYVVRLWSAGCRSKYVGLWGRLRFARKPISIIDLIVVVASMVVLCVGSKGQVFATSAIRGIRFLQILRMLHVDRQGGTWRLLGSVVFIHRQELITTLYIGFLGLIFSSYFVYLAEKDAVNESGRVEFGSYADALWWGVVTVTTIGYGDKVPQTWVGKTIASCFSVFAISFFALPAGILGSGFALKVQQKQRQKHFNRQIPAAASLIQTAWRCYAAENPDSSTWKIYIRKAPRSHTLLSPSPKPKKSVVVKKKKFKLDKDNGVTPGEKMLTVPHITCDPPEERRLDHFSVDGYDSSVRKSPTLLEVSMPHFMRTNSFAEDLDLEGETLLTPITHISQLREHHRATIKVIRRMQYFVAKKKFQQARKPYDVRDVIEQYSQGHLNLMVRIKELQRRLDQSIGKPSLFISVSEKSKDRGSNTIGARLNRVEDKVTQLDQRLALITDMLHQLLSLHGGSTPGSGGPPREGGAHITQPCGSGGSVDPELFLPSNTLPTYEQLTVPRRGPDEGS
experiment-notes: KCNQ1 potassium channel potentiators, confirmation, FluxOR thallium flux, CHO cells, duplicates (AID 493007);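 for potentiation: 0% = buffer-only wells and 100% = R-L3 activator control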
particulars: KCNQ1 cell line, FluxOR thallium flux fluorescence, at 10 µM; hits give high values, % of reference activator effect, buffer zero
Active and inactive are the calls of the source.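 Rule for the calls: active = potentiation averaged over duplicate wells exceeding buffer-only control mean by more than 3 SD; inactive = the rest.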
readout-type: potentiation

compound | potentiation
Cc1sc2nc(C(C)C)nc(SCC(=O)N3c4ccccc4CC3C)c2c1C (configuration not stated) | 47.5% (active)
COc1ccc(-n2nc(C(=O)NCC(=O)N3CCC(C(N)=O)CC3)c3ccccc3c2=O)cc1 | inactive
S=c1nc(-c2ccccc2)[nH]c2ccc(Br)cc12 | 294% (active)
COc1ccc(CN(C)C(=O)c2ccc3ccccc3n2)cc1F | inactive
COc1cccc(N=Nc2ccc3cccnc3c2O)c1 | 29% (active)
Fc1ccc(COc2ccc(Br)cc2CNCc2ccncc2)cc1 | inactive
Cc1cccc(NC(=S)c2nc3ccccc3s2)c1 | 146% (active)
CN(C1CCCCC1)S(=O)(=O)c1ccc(NC(=S)NC(=O)c2cccs2)cc1 | 30% (active)

Which potentiation is listed for CCOC(=O)c1ccccc1N1C(=O)CSC1=S ?
inactive

I would be grateful if you could share the reported potentiation for O=C(N/N=C/c1ccccn1)c1sc2ccccc2c1Cl .
41% (active)

Value lookup for potentiation; key = CCCNC1=CC(=O)CC(C)(C)C1
inactive

potentiation for CC(C)c1nc2sc3c(=S)nc[nH]c3c2c2c1CCC2 ?
194% (active)

###

experiment-notes: thallium flux activation in parental CHO cells, counter-screen for KCNQ1 potentiator project (AID 493006);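 for activation: fluorescence ratio of max minus min over baseline after K+ and Tl+ depolarization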
particulars: parental CHO-K1 cells, FluxOR thallium flux, at 10 µM
The source made the active and inactive calls.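 Rule for the calls: active = duplicate-averaged activation above buffer control mean plus 5 SD of those controls; inactive = the rest.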
Use one of these outcomes when replying: YES (active), NO (inactive)

compound | assigned-label
O=C(NC(=S)Nc1cccc(C(F)(F)F)c1)c1csnn1 | YES
CCOC(=O)C1=NN(C(=O)c2ccc(C)cc2)C(O)(c2ccc(Cl)cc2)C1 (stereo not given) | YES
CCCN(C(=O)c1cn(-c2ccccc2)nc1-c1ccc(OC)cc1)C1CCS(=O)(=O)C1 (stereo not given) | NO
O=C(CSc1nnc(NC(=O)C2CCC2)s1)Nc1ccc(N2CCOCC2)cc1 | NO

Then there is this compound:
What is the recorded call for this compound in the test? CC1(C)CC(=O)C2=C(C1)N(c1cccc(Cl)c1)C(=O)NC2(C(F)(F)F)C(F)(F)F
NO

###

study-system: Potassium voltage-gated channel subfamily KQT member 1 (Homo sapiens) (UniProt P51787)
experiment-notes: KCNQ1 potassium channel potentiators, confirmation, FluxOR thallium flux, CHO cells, duplicates (AID 493007);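 for outcome: cells depolarized by a potassium plus thallium sulfate stimulus after compound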
particulars: KCNQ1 cell line, FluxOR thallium flux fluorescence, at 10 µM, % of reference activator effect, buffer zero
Active and inactive are the calls of the source.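 The calls were made as follows: active = potentiation averaged over duplicate wells exceeding buffer-only control mean by more than 3 SD; inactive = the rest.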
Please state which outcome applies, choosing from true = active, false = inactive

molecule | assigned-label
CNC(=S)Nc1sc2c(c1C(=O)OC)CCC2 | true
CN(C)c1cccc(C(=O)N2CCCC(C(=O)c3cc(F)ccc3F)C2)c1 (stereo unspecified) | false
Cc1ccc2c(c1)C1CN(C)CCC1N2C(=S)NC(=O)c1ccc(Cl)cc1Cl (stereo unspecified) | true
C=CS(=O)(=O)c1sc(Cl)c(N2CCOCC2)c1[N+](=O)[O-] | true
Cc1ccccc1Cn1c(O)c(N=NC(=S)Nc2ccccc2F)c2ccccc21 | true

Dear all, I need the recorded test outcome for Cc1ccc(S(=O)(=O)N2CCN(C(=O)c3ccc(Br)o3)CC2)c(C)c1 , thank you.
false

Data provenance: PubChem BioAssay
